Some compounds, each annotated with its measured I 50 ng/ml (a).
- System: MAb 4063-21-1 (ECACC 8808/2501)
- assay-protocol: two-step competitive ELISA (BSA-conjugated hapten on plate), anti-atrazine MAb
- Format: binding, Maus
- assay-setup: inhibitor concentration for 50 % inhibition in competitive ELISA

compound	I 50 ng/ml (a) / ng/mL
CCNc1nc(NCC)nc(SC)n1 [Simetryn]	27
CCNc1nc(O)nc(NC(C)(C)C)n1 [OH-Terbuthylazin, Hydroxyterbuthylazin]	8
CNc1nc(O)nc(NC(C)C)n1 [OH-Desmetryn, Hydroxydesmetryn]	360
CNc1nc(NC(C)C)nc(SC)n1 [Desmetryn]	90
